# tested_target: human 5-HT6 receptor (Homo sapiens)
# Construct: expressed in transfected cells
# Sequence (P50406 whole entry): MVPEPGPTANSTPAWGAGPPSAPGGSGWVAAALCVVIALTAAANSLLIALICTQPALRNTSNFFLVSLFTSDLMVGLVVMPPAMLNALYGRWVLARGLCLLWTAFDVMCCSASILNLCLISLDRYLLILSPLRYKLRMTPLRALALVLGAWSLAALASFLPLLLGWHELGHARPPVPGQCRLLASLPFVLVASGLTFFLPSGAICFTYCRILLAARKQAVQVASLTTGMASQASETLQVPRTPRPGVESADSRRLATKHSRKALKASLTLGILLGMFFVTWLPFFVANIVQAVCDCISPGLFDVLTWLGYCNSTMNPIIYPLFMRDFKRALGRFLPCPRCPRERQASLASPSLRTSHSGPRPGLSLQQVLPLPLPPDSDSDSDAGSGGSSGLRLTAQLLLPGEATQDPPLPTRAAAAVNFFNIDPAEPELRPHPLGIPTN
# procedure_text: GPCR radioligand binding assay, [3H]-LSD displacement, HEK293 membranes
# setup_conditions: 5-HT6; replicate exp_1
Note that class boundaries on %inh 5-HT6 exp_1 are LOW (below 20%), MEDIUM (20% to below 40%), HIGH (40% or more)

Prompt: Which %inh 5-HT6 exp_1 category applies to CC(=O)c1ccc2c(c1)CNCC2 here?
Response: LOW

Prompt: Would you kindly repeat that for Cc1cc(C)c2c(=O)[nH]n(C)c2n1 ?
Response: MEDIUM

Prompt: Would you kindly repeat that for Cn1c(CO)nc2ccccc21 ?
Response: MEDIUM

Prompt: Would you kindly repeat that for CS(=O)(=O)c1ccc(N2CCNCC2)cc1 ?
Response: MEDIUM

Prompt: Would you kindly repeat that for Cc1ccc(CCNc2ccccc2)cn1 ?
Response: LOW

Prompt: Would you kindly repeat that for Oc1nnc(-c2ccccc2)o1 ?
Response: LOW

Prompt: Would you kindly repeat that for CCCN1C(=O)CC(=O)NC1=S ?
Response: HIGH

Prompt: Would you kindly repeat that for c1ccc2oc(C3CCCNC3)nc2c1 (centres unmarked) ?
Response: MEDIUM

Prompt: Would you kindly repeat that for NC1CCc2ccccc21 (centres unmarked) ?
Response: LOW

Prompt: Would you kindly repeat that for c1ccc(-c2ccncc2)cc1 ?
Response: MEDIUM

Prompt: Would you kindly repeat that for COc1ccc(CN2CCNCC2)cc1F ?
Response: HIGH

Prompt: Would you kindly repeat that for O=C1CCCc2occc21 ?
Response: MEDIUM

* * *

# tested_target: human thrombin (Homo sapiens, UniProt P00734)
# Construct: human thrombin; purchased Sigma-Aldrich
# procedure_text: Protease inhibitory assay, chromogenic substrate S-2238
# Format: biochemical
# setup_conditions: Thrombin Ki determination; substrate 40 µM; cmpd conc 200 µM
Would you kindly list V0 / Vi for each of these molecules?
// return just the number, without any unit appended

Prompt: Name the recorded V0 / Vi for CC(=O)c1sc(-c2ccc(O)cc2)nc1C [SX-E1] .
Response: 1.06

Prompt: Would you kindly repeat that for CC1CCc2sc(C(=O)O)cc2C1 (stereo not shown) ?
Response: 1.17

Prompt: Would you kindly repeat that for c1cnc2cccnc2c1 ?
Response: 1.07

Prompt: Would you kindly repeat that for O=C(O)C1CCN(c2ncccn2)CC1 ?
Response: 1.14

Prompt: Would you kindly repeat that for NC(=O)N1CCC(C(=O)O)CC1 ?
Response: 1.04

Prompt: Would you kindly repeat that for Nc1nnc(-c2cccs2)[nH]1 ?
Response: 1.08

Prompt: Would you kindly repeat that for O=C(O)c1cnc(-c2ccccc2)s1 ?
Response: 1.05

* * *

Would you kindly list Ki for each of these molecules?
# tested_target: bovine factor Xa (Bos taurus, UniProt P00743)
# Construct: bovine factor Xa, Chromogenix, 2 nkat/mL; purchased Chromogenix
# Sequence (P00743 234-492 limits assumed): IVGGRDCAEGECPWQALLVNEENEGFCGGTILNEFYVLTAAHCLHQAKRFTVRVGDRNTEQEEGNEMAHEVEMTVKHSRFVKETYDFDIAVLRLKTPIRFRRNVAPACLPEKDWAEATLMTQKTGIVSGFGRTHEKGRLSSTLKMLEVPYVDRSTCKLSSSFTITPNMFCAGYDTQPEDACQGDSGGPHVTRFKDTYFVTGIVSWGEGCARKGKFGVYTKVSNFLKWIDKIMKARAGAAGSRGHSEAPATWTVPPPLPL
# Sequence (P00743 41-180 partner limits assumed): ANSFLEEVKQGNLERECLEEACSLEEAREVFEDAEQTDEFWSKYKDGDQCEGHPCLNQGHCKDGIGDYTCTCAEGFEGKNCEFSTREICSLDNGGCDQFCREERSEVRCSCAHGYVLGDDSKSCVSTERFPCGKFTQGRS
# procedure_text: Protease inhibitory assay, chromogenic substrate S-2222
# Type: biochemical
# setup_conditions: FactorXa; substrate 100 µM; cmpd conc 200 µM; one of two values averaged in Supplementary Data 1; read-out: Ki
Give just the numeric value; µM need not be written.

Prompt: Name the recorded Ki for Cc1cc2ccccc2nc1N .
Response: 148

Prompt: Would you kindly repeat that for Oc1ccccc1N1CCCCC1 ?
Response: 597

Prompt: Would you kindly repeat that for O=C(c1ccccc1F)N1CCNCC1 ?
Response: 482

Prompt: Would you kindly repeat that for COc1ccccc1CC1CCNCC1.Cl ?
Response: 445

Prompt: Would you kindly repeat that for Cn1c(N)nc2ccccc21 ?
Response: 257

Prompt: Would you kindly repeat that for CC(=O)c1sc(-c2ccc(O)cc2)nc1C [SX-E1] ?
Response: 781

Prompt: Would you kindly repeat that for c1ccc(Nc2nncs2)cc1 ?
Response: 814

Prompt: Would you kindly repeat that for O=C1NC(=O)/C(=C\c2cccs2)N1 ?
Response: 552
